# targetOrTestSystem: T1, recombinant human EpCAM extracellular domain (human, UniProt P16422 24-265)
# T1 construct: extracellular domain; Plate-coated antigen of the ELISAs; also called human EpCAM ECD; recombinant EpCAM antigen
# T1 sequence (looked up): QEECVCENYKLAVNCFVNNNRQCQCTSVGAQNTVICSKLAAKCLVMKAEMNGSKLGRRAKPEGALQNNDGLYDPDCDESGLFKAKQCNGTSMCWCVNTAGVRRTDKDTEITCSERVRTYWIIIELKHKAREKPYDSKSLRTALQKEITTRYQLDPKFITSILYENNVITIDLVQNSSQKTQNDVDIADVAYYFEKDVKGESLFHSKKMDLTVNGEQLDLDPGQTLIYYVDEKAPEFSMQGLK
# methodNotes: ELISA with pH titration, human EpCAM
Form field: pH inflection point (one value per entry).
Reply with just the number (in pH).

>  <binder>
BAP-105.4-01-05 (antibody, V domains shown, Humanized) VH: EVQLVQSGAEVKKPGATVKISCKVSGYTFTSYWMHWIRQPPGKGLEWIGYIRPSTGYTEYNQKFKDRFTISRDNSKNTLYLQMNSLRAEDTAVYYCGRGDNWVGFANWGQGTLVTVSS VL: EIVLTQSPDFQSVTPKEKVTITCSASSSISYMHWYQQKPGKAPKLLIYSTSNLASGVPDRFSGSGSGTDFTLKISRVEAEDVGVYYCHQWSTYETFGQGTKVEIK

>  <pH inflection point, pH>
6.83

$$$$

pH inflection point for BAP-105.4-02-01 (antibody, V domains shown, Humanized) VH: EVQLVQSGAEVKKPGATVKISCKVSGYTFTSYWMHWVRQAPGQGLEWMGYIRPSTGYTEYNQKFKDRFTISRDNSKNTLYLQMNSLRAEDTAVYYCGRGDNWVGFANWGQGTLVTVSS VL: EIVMTQSPATLSVSPGERATLSCSASSSISYMHWYQQKPGKAPKLLIYSTSNLASGVPSRFSGSGSGTEFTLTISSLQPDDFATYYCHQWSTYETFGQGTKVEIK is 6.6

Per the record, BAP-105.4-01-02 (antibody, V domains shown, Humanized) VH: EVQLVQSGAEVKKPGESLRISCKGSGYTFTSYWMHWIRQSPSRGLEWLGYIRPSTGYTEYNQKFKDRVTISADKSISTAYLQWSSLKASDTAMYYCGRGDNWVGFANWGQGTLVTVSS VL: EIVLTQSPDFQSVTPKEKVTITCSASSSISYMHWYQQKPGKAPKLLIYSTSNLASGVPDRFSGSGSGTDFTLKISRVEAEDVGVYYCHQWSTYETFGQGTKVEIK has pH inflection point of 6.87
